# Test system: SN12C
# assay overview: AUC of dose-response viability curve, drug + dasatinib, normalised to DMSO (arbitrary (AUC of normalised viability)); higher = less growth inhibition
# run conditions: treatment: drug + dasatinib (fixed dose, not stated); 5 days
experimental endpoint: AUC of dose-response viability curve
One number for each entry.

These solved cases illustrate the format of a correct answer.
# molecule, AUC of dose-response viability curve
records = [
    ("CC(C)(C)c1cc(C=C(C#N)C#N)cc(Br)c1O [AG-1024] + Cc1nc(Nc2ncc(C(=O)Nc3c(C)cccc3Cl)s2)cc(N2CCN(CCO)CC2)n1", 2.55),
    ("CC[C@@H]1C(=O)N(C)c2cnc(Nc3ccc(C(=O)NC4CCN(C)CC4)cc3OC)nc2N1C1CCCC1 [BI 2536] + Cc1nc(Nc2ncc(C(=O)Nc3c(C)cccc3Cl)s2)cc(N2CCN(CCO)CC2)n1", 1.24),
    ("Cc1cc(CN2CCN(c3c(Br)cnc4[nH]c(-c5ccc(N6CCN(C)CC6)cc5)nc34)CC2)no1 + Cc1nc(Nc2ncc(C(=O)Nc3c(C)cccc3Cl)s2)cc(N2CCN(CCO)CC2)n1", 1.78),
]

For every listed record, write down its AUC of dose-response viability curve.
1. CN1CCN(C2CCN(C(=O)Nc3cc(Oc4ccc(NC(=O)C5(C(=O)Nc6ccc(F)cc6)CC5)c(F)c4)ccn3)CC2)CC1 [Golvatinib (E7050)] + Cc1nc(Nc2ncc(C(=O)Nc3c(C)cccc3Cl)s2)cc(N2CCN(CCO)CC2)n1
2. COC1=CC(c2cc3ccccc3[nH]2)=N/C1=C\c1[nH]c(C)cc1C.CS(=O)(=O)O [Obatoclax mesylate (GX15-070)] + Cc1nc(Nc2ncc(C(=O)Nc3c(C)cccc3Cl)s2)cc(N2CCN(CCO)CC2)n1
3. C[C@@H](N)[C@H]1CC[C@H](C(=O)Nc2ccncc2)CC1.Cl.Cl + Cc1nc(Nc2ncc(C(=O)Nc3c(C)cccc3Cl)s2)cc(N2CCN(CCO)CC2)n1
4. O=C(Nc1c[nH]nc1-c1nc2cc(CN3CCOCC3)ccc2[nH]1)NC1CC1 [AT9283] + Cc1nc(Nc2ncc(C(=O)Nc3c(C)cccc3Cl)s2)cc(N2CCN(CCO)CC2)n1
5. NC(=O)Nc1cc(-c2cccc(F)c2)sc1C(=O)N[C@H]1CCCNC1 [AZD7762] + Cc1nc(Nc2ncc(C(=O)Nc3c(C)cccc3Cl)s2)cc(N2CCN(CCO)CC2)n1

Reply:
[2.19, 1.38, 2.5, 1.75, 1.56]

For every listed record, write down its AUC of dose-response viability curve.
1. COc1cc2nccc(Oc3ccc(NC(=O)C4(C(=O)Nc5ccc(F)cc5)CC4)cc3)c2cc1OC [XL-184 free base (Cabozantinib)] + Cc1nc(Nc2ncc(C(=O)Nc3c(C)cccc3Cl)s2)cc(N2CCN(CCO)CC2)n1
2. COC(=O)Nc1ccc(-c2nc(N3CCOCC3)c3cnn(C4CCN(C(=O)OC)CC4)c3n2)cc1 [WYE-354] + Cc1nc(Nc2ncc(C(=O)Nc3c(C)cccc3Cl)s2)cc(N2CCN(CCO)CC2)n1
3. CN(C)c1ccc(-c2nc3c(N4CCN(CC(=O)Nc5nccs5)CC4)c(Cl)cnc3[nH]2)cc1 + Cc1nc(Nc2ncc(C(=O)Nc3c(C)cccc3Cl)s2)cc(N2CCN(CCO)CC2)n1
4. C[C@H](NC(=O)/C(C#N)=C/c1cccc(Br)n1)c1ccccc1 [WP1066] + Cc1nc(Nc2ncc(C(=O)Nc3c(C)cccc3Cl)s2)cc(N2CCN(CCO)CC2)n1

Reply:
1: 2.07; 2: 2.08; 3: 2.03; 4: 2.36

For every listed record, write down its AUC of dose-response viability curve.
1. CCOc1cc2ncc(C#N)c(Nc3ccc(F)c(Cl)c3)c2cc1NC(=O)/C=C/CN(C)C [Pelitinib (EKB-569)] + Cc1nc(Nc2ncc(C(=O)Nc3c(C)cccc3Cl)s2)cc(N2CCN(CCO)CC2)n1
2. O=C(NC1CCNCC1)c1n[nH]cc1NC(=O)c1c(Cl)cccc1Cl [AT7519] + Cc1nc(Nc2ncc(C(=O)Nc3c(C)cccc3Cl)s2)cc(N2CCN(CCO)CC2)n1
3. CNC(=O)c1cc(Oc2ccc(NC(=O)Nc3ccc(Cl)c(C(F)(F)F)c3)cc2)ccn1.Cc1ccc(S(=O)(=O)O)cc1 [Sorafenib (Nexavar)] + Cc1nc(Nc2ncc(C(=O)Nc3c(C)cccc3Cl)s2)cc(N2CCN(CCO)CC2)n1
4. O=C1NCCc2[nH]c(-c3ccncc3)cc21 + Cc1nc(Nc2ncc(C(=O)Nc3c(C)cccc3Cl)s2)cc(N2CCN(CCO)CC2)n1

Reply:
1: 1.78; 2: 1.59; 3: 2.52; 4: 2.23

For every listed record, write down its AUC of dose-response viability curve.
1. O=C(O)[C@]1(Cc2cccc(Nc3nccs3)n2)CC[C@@H](Oc2cccc(Cl)c2F)CC1 [MK-5108 (VX-689)] + Cc1nc(Nc2ncc(C(=O)Nc3c(C)cccc3Cl)s2)cc(N2CCN(CCO)CC2)n1
2. CNC(=O)c1cccc(-c2ccc3c(N4CCOC[C@@H]4C)nc(N4CCOC[C@@H]4C)nc3n2)c1 [AZD2014] + Cc1nc(Nc2ncc(C(=O)Nc3c(C)cccc3Cl)s2)cc(N2CCN(CCO)CC2)n1

Reply:
1. 1.96
2. 1.48
